Data provenance: the RNAGym collection of RNA variant scans (doi:10.7554/elife.80360)

B1: HDV Ribozyme (parent)
chain: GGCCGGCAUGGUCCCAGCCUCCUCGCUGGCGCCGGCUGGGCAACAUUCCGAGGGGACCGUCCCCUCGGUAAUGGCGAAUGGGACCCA

- Variants of: B1
- Assay notes: self-cleavage, relative activity (ratio to wild type); higher = more cleavage; co-transcriptional
Would you mind sorting the entries by self-cleavage according to these classes? low (below 0.2), mid (0.2 to below 0.7), high (0.7 or more)

{"columns": ["Variant notation", "Qualitative label"],
 "data": [
  ["G2A C18A", "low"],
  ["C66A A70C", "high"],
  ["G28U G53U", "low"],
  ["G35U C36U", "low"],
  ["C13G C85G", "low"]
]}

Q: Input C21G A78C ; output its category
Result: low

Q: Record U46C C64G — which class?
Result: high
